Biological target: UniProtKB P42338
Assay: In vitro enzyme inhibition assay (Kinase Glo based enzyme activity assay)
Format: biochemical
Conditions: Test (a), human recombinant enzyme; read-out: PI3Kβ inhibition, IC50
pIC50: −log10 of the molar value.
MEASURED ENDPOINT: pIC50

>>> readout_value("CC(Nc1cc(F)cc(F)c1)c1cc(C(=O)N(C)C)cc2c(=O)cc(N3CCO[C@@H](C)C3)oc12 (some centres unmarked) [Example 9.02]")
7.96
>>> readout_value("COCCN(C)C(=O)c1cc(C(C)Nc2cc(F)cc(F)c2)c2oc(N3CCOCC3)cc(=O)c2c1 (centres unmarked) [Example 4.24]")
8.40
>>> readout_value("CC(Nc1cc(F)cc(F)c1F)c1cc(C(=O)N(C)C)cc2c(=O)cc(N3CCOCC3)oc12 (single isomer, unassigned) [Example 3.13a]")
5.34
>>> readout_value("CC(Nc1ccc(F)c(Cl)c1)c1cc(C(=O)N(C)C)cc2c(=O)cc(N3CCOCC3)oc12 (centres unmarked) [Example 3.05]")
8.22
>>> readout_value("CC(c1cc(C(=O)N2CCC(O)CC2)cc2c(=O)cc(N3CCOCC3)oc12)N(C)c1cc(F)cc(F)c1 (single isomer, unassigned) [Example 7.01b]")
5.37
>>> readout_value("CC(Nc1cc(F)cc(F)c1)c1cc(C(=O)N(C)C)cc2c(=O)cc(N3CCO[C@H](C)C3)oc12 (single isomer, unassigned) [Example 9.01a]")
4.75
>>> readout_value("CC(Nc1cc(F)cc(F)c1)c1cc(C(=O)N(C)C)cc2c(=O)cc(N3CCO[C@@H](C)C3)oc12 (single isomer, unassigned) [Example 9.02b]")
8.15
>>> readout_value("CC(Nc1cc(F)cc(F)c1)c1cc(C(=O)N2CCC[C@H]2CO)cc2c(=O)cc(N3CCOCC3)oc12 (some centres unmarked) [Example 4.21]")
8.40
>>> readout_value("CCCNC(=O)c1cc(C(C)Nc2cc(F)cc(F)c2)c2oc(N3CCOCC3)cc(=O)c2c1 (centres unmarked) [Example 4.16]")
8.05
>>> readout_value("CC(Nc1cc(F)cc(F)c1)c1cc(C(=O)N(C)C)cc2c(=O)cc(N3CCO[C@H](C)C3)oc12 (some centres unmarked) [Example 9.01]")
8.40
>>> readout_value("CC(Nc1cccc(Cl)c1F)c1cc(C(=O)N(C)CCO)cc2c(=O)cc(N3CCOCC3)oc12 (centres unmarked) [Example 2.05]")
8.30
>>> readout_value("C#Cc1cccc(NC(C)c2cc(C(=O)N(C)C)cc3c(=O)cc(N4CCOCC4)oc23)c1 (centres unmarked) [Example 3.20]")
8.30
>>> readout_value("Cc1c(C#N)cccc1NC(C)c1cc(C(=O)N(C)C)cc2c(=O)cc(N3CCOCC3)oc12 (centres unmarked) [Example 3.29]")
8.30
>>> readout_value("CC(Nc1ccc(F)cc1)c1cc(C(=O)N(C)C)cc2c(=O)cc(N3CCO[C@H](C)C3)oc12 (some centres unmarked) [Example 9.0]")
8.30

====

Target: PI3Kβ (Homo sapiens (Human), UniProt P42338)
Sequence (P42338 whole entry): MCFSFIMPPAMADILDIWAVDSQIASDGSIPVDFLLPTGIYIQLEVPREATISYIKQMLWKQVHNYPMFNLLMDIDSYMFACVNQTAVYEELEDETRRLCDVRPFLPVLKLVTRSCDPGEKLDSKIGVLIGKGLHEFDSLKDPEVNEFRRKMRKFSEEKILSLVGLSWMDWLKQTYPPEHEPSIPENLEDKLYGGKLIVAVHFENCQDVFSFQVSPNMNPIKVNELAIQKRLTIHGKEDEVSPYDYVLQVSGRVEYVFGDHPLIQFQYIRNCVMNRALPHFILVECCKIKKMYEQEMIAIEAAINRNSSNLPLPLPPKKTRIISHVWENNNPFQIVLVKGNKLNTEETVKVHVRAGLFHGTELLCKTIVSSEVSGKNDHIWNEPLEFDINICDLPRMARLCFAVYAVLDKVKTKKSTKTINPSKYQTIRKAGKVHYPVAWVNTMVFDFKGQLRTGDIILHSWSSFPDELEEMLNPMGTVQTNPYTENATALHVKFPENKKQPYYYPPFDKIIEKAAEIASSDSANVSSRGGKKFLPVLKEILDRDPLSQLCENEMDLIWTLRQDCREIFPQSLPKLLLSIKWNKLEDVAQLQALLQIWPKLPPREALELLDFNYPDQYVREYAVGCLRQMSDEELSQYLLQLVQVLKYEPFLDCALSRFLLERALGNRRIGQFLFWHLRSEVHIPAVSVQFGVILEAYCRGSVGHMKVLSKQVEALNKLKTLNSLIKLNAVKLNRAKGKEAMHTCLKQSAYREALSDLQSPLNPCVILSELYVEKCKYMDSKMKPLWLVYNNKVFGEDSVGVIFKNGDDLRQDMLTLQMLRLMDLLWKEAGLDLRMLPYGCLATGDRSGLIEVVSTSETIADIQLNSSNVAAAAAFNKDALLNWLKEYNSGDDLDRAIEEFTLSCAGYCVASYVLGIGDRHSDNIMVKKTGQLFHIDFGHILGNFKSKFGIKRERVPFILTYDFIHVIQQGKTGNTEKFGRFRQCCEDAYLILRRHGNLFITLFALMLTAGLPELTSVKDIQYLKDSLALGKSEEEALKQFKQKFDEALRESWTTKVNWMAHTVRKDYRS
Sequence (P27986 whole entry partner): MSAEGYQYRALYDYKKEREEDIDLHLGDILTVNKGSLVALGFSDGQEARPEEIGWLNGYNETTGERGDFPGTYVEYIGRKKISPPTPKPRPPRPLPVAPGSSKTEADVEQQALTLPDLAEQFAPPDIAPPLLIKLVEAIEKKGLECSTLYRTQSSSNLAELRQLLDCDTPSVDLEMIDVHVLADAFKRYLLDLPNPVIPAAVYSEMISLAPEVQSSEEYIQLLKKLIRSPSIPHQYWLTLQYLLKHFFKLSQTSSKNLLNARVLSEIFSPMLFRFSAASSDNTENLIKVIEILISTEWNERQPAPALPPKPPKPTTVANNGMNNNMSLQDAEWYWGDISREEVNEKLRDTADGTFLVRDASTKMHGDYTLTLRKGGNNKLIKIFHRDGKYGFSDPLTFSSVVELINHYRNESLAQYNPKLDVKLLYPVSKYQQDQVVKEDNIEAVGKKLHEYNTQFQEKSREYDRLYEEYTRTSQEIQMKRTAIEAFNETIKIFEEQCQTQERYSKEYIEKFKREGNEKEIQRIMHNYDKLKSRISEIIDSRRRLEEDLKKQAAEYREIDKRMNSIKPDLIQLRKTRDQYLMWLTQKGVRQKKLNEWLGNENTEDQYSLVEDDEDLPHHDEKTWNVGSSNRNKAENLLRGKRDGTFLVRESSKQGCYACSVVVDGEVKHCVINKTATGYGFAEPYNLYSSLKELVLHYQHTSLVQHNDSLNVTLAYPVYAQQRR
Test: In vitro enzyme inhibition assay (Kinase Glo based enzyme activity assay)
Assay type: biochemical
Conditions: Test (a), approximate value; read-out: IC50 versus PI3Kβ
pIC50: −log10 of the molar value.
pIC50 values for the compounds below.
MEASURED ENDPOINT: pIC50

>>> readout_value("CC(Nc1cccc(Cl)c1F)c1cc(C(=O)N(C)C)cc2c(=O)cc(N3CCOCC3)oc12 (racemic)")
"~7.96"
>>> readout_value("CC(c1cc(C(=O)N(C)C)cc2c(=O)cc(N3CCOCC3)oc12)N(C)c1ccc(F)cc1 (stereo not shown)")
"~7.54"
>>> readout_value("CC(Nc1cccc(Cl)c1F)c1cc(C(=O)N(C)CCO)cc2c(=O)cc(N3CCOCC3)oc12 (stereo not shown)")
"~8.30"
>>> readout_value("CC(Nc1cc(F)cc(F)c1F)c1cc(C(=O)N(C)C)cc2c(=O)cc(N3CCOCC3)oc12 (single isomer, unassigned) [Example 3.13a]")
"~5.35"
>>> readout_value("CC(Nc1ccc(F)cc1)c1cc(C(=O)NCCN(C)C)cc2c(=O)cc(N3CCOCC3)oc12 (stereo not shown)")
"~8.70"
>>> readout_value("CC(Nc1cc(F)cc(F)c1)c1cc(C(=O)N2CCCC2)cc2c(=O)cc(N3CCOCC3)oc12 (stereo not shown)")
"~8.40"
>>> readout_value("CC(Nc1ccc(F)c(F)c1)c1cc(C(=O)N(C)C)cc2c(=O)cc(N3CCOCC3)oc12 (racemic)")
"~8.05"

====

Target: PI3Kβ (Homo sapiens (Human))
Assay: In vitro enzyme inhibition assay (Kinase Glo based enzyme activity assay)
Type: biochemical
Conditions: Test (a), human recombinant enzyme; read-out: PI3Kβ inhibition, IC50
pIC50: −log10 of the molar value.
pIC50 values for the compounds below.
MEASURED ENDPOINT: pIC50

>>> readout_value("COc1cc(F)cc(NC(C)c2cc(C(=O)N(C)C)cc3c(=O)cc(N4CCOCC4)oc23)c1 (stereo not shown)")
8.40
>>> readout_value("CC(Nc1ccc(F)cc1)c1cc(C(=O)NCCN(C)C)cc2c(=O)cc(N3CCOCC3)oc12 (stereo not shown)")
8.70
>>> readout_value("C#Cc1cc(F)cc(NC(C)c2cc(C(=O)N(C)C)cc3c(=O)cc(N4CCOCC4)oc23)c1 (stereo not shown)")
8.40
>>> readout_value("C#Cc1cc(F)cc(N(C)C(C)c2cc(C(=O)N(C)C)cc3c(=O)cc(N4CCOCC4)oc23)c1 (stereo not shown)")
7.85
>>> readout_value("COc1c(F)cccc1NC(C)c1cc(C(=O)N(C)C)cc2c(=O)cc(N3CCOCC3)oc12 (stereo not shown)")
8.22
>>> readout_value("CC(Nc1cc(F)ccc1F)c1cc(C(=O)N(C)C)cc2c(=O)cc(N3CCOCC3)oc12 (stereo not shown)")
8.00
>>> readout_value("CC(c1cc(C(=O)N(C)C)cc2c(=O)cc(N3CCOCC3)oc12)N(C)c1cc(F)c(F)c(F)c1 (stereo not shown)")
7.77
>>> readout_value("CCN(CC)C(=O)c1cc(C(C)Nc2cc(F)cc(F)c2)c2oc(N3CCOCC3)cc(=O)c2c1 (stereo not shown)")
8.40
>>> readout_value("COCCNC(=O)c1cc(C(C)Nc2cc(F)cc(F)c2)c2oc(N3CCOCC3)cc(=O)c2c1 (stereo not shown)")
8.40
>>> readout_value("CC(c1cc(C(=O)N(C)C)cc2c(=O)cc(N3CCOCC3)oc12)N(C)c1ccccc1 (stereo not shown)")
7.37
>>> readout_value("CC(c1cc(C(=O)N(C)CCN(C)C)cc2c(=O)cc(N3CCOCC3)oc12)N(C)c1ccc(F)cc1 (stereo not shown)")
7.96
>>> readout_value("CC(Nc1cc(F)ccc1Cl)c1cc(C(=O)N(C)C)cc2c(=O)cc(N3CCOCC3)oc12 (stereo not shown)")
8.40
>>> readout_value("CC(Nc1cccc(Cl)c1F)c1cc(C(=O)N(C)C)cc2c(=O)cc(N3CCOCC3)oc12 (single isomer, unassigned) [Example 3.04a]")
5.65
>>> readout_value("CC(Nc1cc(F)cc(F)c1)c1cc(C(=O)N2CCN(C)CC2)cc2c(=O)cc(N3CCOCC3)oc12 (stereo not shown)")
8.40
>>> readout_value("Cc1ccc(Cl)cc1NC(C)c1cc(C(=O)N(C)C)cc2c(=O)cc(N3CCOCC3)oc12 (stereo not shown)")
8.40
>>> readout_value("CC(c1cc(C(=O)NCCN(C)C)cc2c(=O)cc(N3CCOCC3)oc12)N(C)c1ccc(F)cc1 (stereo not shown)")
8.15
>>> readout_value("Cc1cc(F)cc(NC(C)c2cc(C(=O)N(C)C)cc3c(=O)cc(N4CCOCC4)oc23)c1 (stereo not shown)")
8.30
>>> readout_value("CC(c1cc(C(=O)N(C)C)cc2c(=O)cc(N3CCOCC3)oc12)N(C)c1cc(F)cc(F)c1F (stereo not shown)")
7.68
>>> readout_value("CC(Nc1cc(F)cc(F)c1)c1cc(C(=O)N(C)CCO)cc2c(=O)cc(N3CCOCC3)oc12 (stereo not shown)")
8.40
>>> readout_value("CC(Nc1cccc(Cl)c1F)c1cc(C(=O)N(C)C)cc2c(=O)cc(N3CCOCC3)oc12 (racemic) [Example 3.04]")
7.96
>>> readout_value("CC(Nc1cccc(Cl)c1F)c1cc(C(=O)N2CCC(O)CC2)cc2c(=O)cc(N3CCOCC3)oc12 (stereo not shown)")
8.22
>>> readout_value("Cc1ccc(C#N)cc1NC(C)c1cc(C(=O)N(C)C)cc2c(=O)cc(N3CCOCC3)oc12 (stereo not shown)")
6.94
